- System: mast cells
- Experimental details: inhibition of mast cell degranulation (spasmogen release) induced by phospholipase A
- Type: cell-based, rat
- Run conditions: Mast cell, rat peritoneal mast cells, 37° C., ten minutes, read-out: IC20 (inhibition of mast cell degranulation by 20%)
Form field: IC20 (one value per entry).
Quantity: IC20 (nM)

CCC1CCC2=C(C1)C(=O)c1cc(C(=O)O)ccc1S2(=O)=O (stereo not drawn)
600
COC1CCc2oc3ccc(C(=O)O)cc3c(=O)c2C1 (stereo not drawn)
1800
O=c1c2c(oc3ccc(-c4nn[nH]n4)cc13)CCCC2
1700

---

- Tested on: mast cells
- Experimental details: inhibition of mast cell degranulation (spasmogen release) induced by phospholipase A
- Type: cell-based, rat
- Run conditions: Mast cell, rat peritoneal mast cells, 37° C., ten minutes, read-out: IC20 (inhibition of mast cell degranulation by 20%)
Would you please tag the item MET when its IC20 is 2000 nM or above, and NOT MET when it is below?

CC1(c2ccccc2)CCc2oc3ccc(-c4nn[nH]n4)cc3c(=O)c2C1 (stereo not drawn)
NOT MET
CSc1ccc2oc3c(c(=O)c2c1)CC(C(=O)O)CC3 (stereo not drawn)
NOT MET
O=C(O)c1ccc2c(=O)c3c(oc2c1)CCCC3
MET
CCOC(=O)C1CCc2oc3ccc(-c4nn[nH]n4)cc3c(=O)c2C1 (stereo not drawn)
MET
CCC1CCc2sc3ccc(C(=O)O)cc3c(=O)c2C1 (stereo not drawn)
MET
CCC1CCc2sc3ccc(-c4nn[nH]n4)cc3c(=O)c2C1 (stereo not drawn)
NOT MET
CCC1CCc2oc3cc(-c4nn[nH]n4)ccc3c(=O)c2C1 (stereo not drawn)
NOT MET
O=c1c2c(oc3ccc(-c4nn[nH]n4)cc13)CCCCCC2
NOT MET
O=C(O)c1ccc2oc3c(c(=O)c2c1)CC(OCc1ccccc1)CC3 (stereo not drawn)
MET

Origin of values: patent US4221800A
